- TESTED_TARGET: human MDM2 protein (amino acids 2-188) (Homo sapiens (Human), UniProt Q00987)
- Sequence (Q00987 2-188): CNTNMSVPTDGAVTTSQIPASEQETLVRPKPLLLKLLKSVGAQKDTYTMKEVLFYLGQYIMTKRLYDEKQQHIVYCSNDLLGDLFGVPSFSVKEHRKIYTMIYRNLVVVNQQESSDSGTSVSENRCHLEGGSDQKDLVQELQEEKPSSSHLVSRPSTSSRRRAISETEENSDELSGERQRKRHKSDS
- MEASUREMENT_DESCRIPTION: TR-FRET assay, p53-MDM2 Assay 2 (modified)
- Type: binding
- CONDITION_LABEL: TR-FRET; 0.1 nM MDM2, 0.1 nM Europium labeled streptavidin, Tecan genios Pro reader; read-out: IC50 p53-MDM2 Assay 2
OBSERVABLE: IC50 (nM)

Reference set, count: 3
# COMPOUND, NUMERIC_VALUE
measured = [
    ("COc1ccc(C(=O)N(C)C)cc1-c1cc2c(n1C(C)C)C(c1ccc(Cl)cc1)N(c1cc(Cl)ccc1C)C2=O (stereo not shown)", 0.133),
    ("COc1nc(N(C)C)ncc1-c1cc2c(n1C(C)C)C(c1ccc(C#N)cc1)N(c1c[nH]c(=O)c(Cl)c1)C2=O (stereo not shown)", 0.131),
    ("COc1ccncc1-c1cc2c(n1C(C)C)C(c1ccc(Cl)cc1)N(c1cc(Cl)ccc1C)C2=O (stereo not shown)", 0.176),
]

I: COc1nc(N(C)C)ncc1-c1cc2c(n1C(C)C)[C@@H](c1ccc(C#N)cc1)N(c1ccc(F)c(Cl)c1)C2=O
II: COc1nc(N(C)C)ncc1-c1cc2c(n1C(C)C)C(c1ccc(Cl)cc1F)N(c1cc(C)nn1C)C2=O (stereo not shown)
III: COc1nc(N(C)C)ncc1-c1cc2c(n1C(C)C)C(c1ccc(Cl)cc1C)N(c1cc(Cl)c(=O)n(C)c1)C2=O (stereo not shown)
IV: COc1nc(N)ncc1-c1cc2c(n1C(C)C)C(c1ccc(Cl)cc1)N(c1c(F)c(C)nn1C)C2=O (stereo not shown)
Could you please sort these 4 entries by IC50 from high to low? The reply should contain the labels ordered as requested.
I, IV, II, III

---

- TESTED_TARGET: human MDM2 protein (amino acids 2-188) (Homo sapiens (Human), UniProt Q00987)
- MEASUREMENT_DESCRIPTION: TR-FRET assay, p53-MDM2 Assay 2 (modified)
- Assay type: binding
- CONDITION_LABEL: TR-FRET; 0.1 nM MDM2, 0.1 nM Europium labeled streptavidin, Tecan genios Pro reader; read-out: IC50 p53-MDM2 Assay 2
OBSERVABLE: IC50 (nM)

Would you please look over these solved cases?
# COMPOUND, TESTED_TARGET, IC50 / nM
measured = [
    ("COc1ccc(C(=O)O)cc1-c1cc2c(n1C(C)C)C(c1ccc(Cl)cc1)N(c1cc(Cl)c(=O)n(C)c1)C2=O (stereo not shown)", "human MDM2 protein (amino acids 2-188) (Homo sapiens (Human), UniProt Q00987)", 0.234),
    ("COc1nc(N(C)C)ncc1-c1cc2c(n1C(C)C)C(c1ccc(Cl)c(F)c1)N(c1cc(Cl)cn(C)c1=O)C2=O (stereo not shown)", "human MDM2 protein (amino acids 2-188) (Homo sapiens (Human), UniProt Q00987)", 0.356),
    ("COc1ccccc1-c1cc2c(n1C(C)C)C(C)(c1ccc(Cl)cc1)N(c1cc(Cl)ccc1C)C2=O (stereo not shown)", "human MDM2 protein (amino acids 2-188) (Homo sapiens (Human), UniProt Q00987)", 0.496),
    ("CNc1ncc(-c2cc3c(n2C(C)C)C(c2ccc(Cl)cc2C)N(c2cc(Cl)c(=O)n(C)c2)C3=O)c(OC)n1 (stereo not shown)", "human MDM2 protein (amino acids 2-188) (Homo sapiens (Human), UniProt Q00987)", 0.243),
]

1: COc1nc(N(C)C)ncc1-c1cc2c(n1C(C)C)[C@@H](c1ccc(C#N)cc1)N(c1cc(Cl)c[nH]c1=O)C2=O
2: COC[C@@H](C)n1c(-c2cnc(OC)nc2OC)cc2c1C(c1ccc(Cl)cc1)N(c1cc(Cl)c(=O)n(C)c1)C2=O (stereo partly shown)
3: COc1nc(N(C)C)ncc1-c1cc2c(n1C(C)C)[C@H](c1ccc(C#N)cc1)N(C1CCOCC1)C2=O
Ordering: ascending IC50. Would you mind listing the labels in the order requested?
2, 3, 1
(2: 0.277 nM, 3: 0.631 nM, 1: 107 nM)

---

- TESTED_TARGET: human MDM2 protein (amino acids 2-188) (Homo sapiens (Human))
- MEASUREMENT_DESCRIPTION: TR-FRET assay, p53-MDM2 Assay 2 (modified)
- Assay type: binding
- CONDITION_LABEL: TR-FRET; 0.1 nM MDM2, 0.1 nM Europium labeled streptavidin, Tecan genios Pro reader; read-out: IC50 p53-MDM2 Assay 2
pIC50: −log10 of the molar value.
OBSERVABLE: pIC50

Example entries and their recorded answers appear below.
# MOLECULE, pIC50
data = [
    ("COc1nc(N(C)C)ncc1-c1cc2c(n1C(C)C)C(c1ccc(C#N)c(F)c1)N(c1cc(Cl)c(=O)n(C)c1)C2=O (stereo not shown)", 9.71),
    ("COC[C@@H](C)n1c(-c2cnc(OC)nc2OC)cc2c1C(c1ccc(C#N)cc1)N(c1ccc(F)c(Cl)c1)C2=O (stereo partly shown)", 9.52),
]

P: COc1ncc(-c2cc3c(n2C(C)C)C(c2ccc(C#N)cc2)N(C2CCOCC2)C3=O)c(OC)n1 (stereo not shown)
Q: CNC(=O)c1ccc(OC)c(-c2cc3c(n2C(C)C)C(c2ccc(Cl)cc2C)N(c2cccc(Cl)c2F)C3=O)c1 (stereo not shown)
Please indicate which item has the smaller measured pIC50: P versus Q Give the chosen item's label as your response.
P
(P: 8.10, Q: 9.12)

---

- TESTED_TARGET: human MDM2 protein (amino acids 2-188) (Homo sapiens (Human))
- MEASUREMENT_DESCRIPTION: TR-FRET assay, p53-MDM2 Assay 2 (modified)
- Type: binding
- CONDITION_LABEL: TR-FRET; 0.1 nM MDM2, 0.1 nM Europium labeled streptavidin, Tecan genios Pro reader; read-out: IC50 p53-MDM2 Assay 2
pIC50: −log10 of the molar value.
OBSERVABLE: pIC50

A selection of reference data follows.
# COMPOUND, pIC50
records = [
    ("COc1ccc(S(C)(=O)=O)cc1-c1cc2c(n1C(C)C)C(c1ccc(Cl)cc1)N(c1cn(C)nc1C)C2=O (centres unmarked)", 8.59),
    ("COc1nc(N(C)C)ncc1-c1cc2c(n1C(C)C)C(c1ccc(C#N)cc1)N(c1cc(Cl)cnc1OC)C2=O (centres unmarked)", 9.73),
    ("COc1nc(N)ncc1-c1cc2c(n1C(C)C)C(c1ccc(Cl)cc1)N(C1CCOCC1)C2=O (centres unmarked)", 8.29),
    ("COc1nc(N(C)C)ncc1-c1cc2c(n1C(C)C)C(c1ccc(Cl)cc1)N(c1c[nH]c(=O)c(Cl)c1)C2=O (centres unmarked)", 9.64),
    ("COc1ncc(-c2cc3c(n2C(C)C)C(c2ccc(Cl)cc2)N(C2CCC(=O)N(C)C2)C3=O)c(OC)n1 (centres unmarked)", 8.80),
    ("Cc1ccc(Cl)cc1N1C(=O)c2cc(-c3ccccc3O)n(C(C)C)c2C1c1ccc(Cl)cc1 (centres unmarked)", 9.51),
]

a: COc1nc(N(C)C)ncc1-c1cc2c(n1C(C)C)[C@@H](c1ccc(C#N)cc1)N(c1cc(Cl)c(=O)n(C)c1)C2=O
b: COc1nc(N)ncc1-c1cc2c(n1C(C)C)C(c1ccc(Cl)cc1)N(c1cc(Cl)cnc1OC)C2=O (centres unmarked)
Form field 'greater pIC50' accepts a or b ; which applies? Let me know the label of the one you choose.
b

---

- TESTED_TARGET: human MDM2 protein (amino acids 2-188) (Homo sapiens (Human))
- MEASUREMENT_DESCRIPTION: TR-FRET assay, p53-MDM2 Assay 2 (modified)
- Format: binding
- CONDITION_LABEL: TR-FRET; 0.1 nM MDM2, 0.1 nM Europium labeled streptavidin, Tecan genios Pro reader; read-out: IC50 p53-MDM2 Assay 2
OBSERVABLE: IC50 (nM)

Guide cases for IC50, answers given:
# COMPOUND, IC50 / nM
measured = [
    ("COc1ncc(-c2cc3c(n2C(C)C)C(c2ccc(Cl)cc2C)N(c2cc(Cl)c(=O)n(C)c2)C3=O)c(OC)n1 (centres unmarked)", 0.216),
    ("COc1cnc(CC(=O)O)cc1-c1cc2c(n1C(C)C)C(c1ccc(C#N)cc1)N(c1cccc(Cl)c1F)C2=O (centres unmarked)", 0.482),
    ("COc1ncc(-c2c(C(=O)O)c3c(n2C(C)C)C(c2ccc(Cl)cc2)N(c2cc(Cl)c(=O)n(C)c2)C3=O)c(OC)n1 (centres unmarked)", 0.14),
    ("COc1ncc(-c2cc3c(n2C(C)C)C(c2ccc(Cl)cc2)N(c2cc(Cl)cn(C)c2=O)C3=O)c(OC)n1 (centres unmarked)", 0.235),
    ("COc1ncc(-c2cc3c(n2C(C)C)[C@@](C)(c2ccc(Cl)cc2)N(c2cc(Cl)c(=O)n(C)c2)C3=O)c(OC)n1", 42.7),
    ("COC[C@@H](C)n1c(-c2cnc(N)nc2OC)cc2c1C(c1ccc(Cl)cc1)N(c1ccc(F)c(Cl)c1)C2=O (some centres unmarked)", 0.362),
    ("CNC(=O)c1ccc(OC)c(-c2cc3c(n2C(C)C)C(c2ccc(Cl)cc2)N(c2ccc(F)c(Cl)c2)C3=O)c1 (centres unmarked)", 0.323),
    ("COc1nc(N(C)C)ncc1-c1cc2c(n1C(C)C)C(c1ccc(C#N)c(F)c1)N(c1cc(Cl)cn(C)c1=O)C2=O (centres unmarked)", 0.257),
]

1: CNC(=O)Cc1ccc(OC)c(-c2cc3c(n2C(C)C)C(c2ccc(Cl)cc2)N(c2cc(Cl)ccc2C)C3=O)c1 (centres unmarked)
2: COc1nc(N(C)C)ncc1-c1cc2c(n1C(C)C)C(c1ccc(Cl)cc1)N(c1cn(C)nc1C)C2=O (centres unmarked)
3: COc1ncc(-c2cc3c(n2C(C)C)[C@](C)(c2ccc(Cl)cc2)N(c2cc(Cl)c(=O)n(C)c2)C3=O)c(OC)n1
4: COc1ccc(C#N)cc1-c1cc2c(n1C(C)C)C(c1ccc(Cl)cc1)N(c1cc(Cl)ccc1C)C2=O (centres unmarked)
5: COc1nc(N(C)C)ncc1-c1cc2c(n1C(C)C)C(c1ccc(C#N)cc1)N(C1CCOCC1)C2=O (centres unmarked)
Please list the entries, largest IC50 first. Provide the ranking by listing each label in its place in the requested order.
3, 5, 2, 4, 1
